Sourced from ChEMBL document CHEMBL2218924

Each record here notes measured residual activity.
assayedTarget: Ephrin type-A receptor 5 (Homo sapiens) (UniProt P54756)
Sequence (P54756 whole entry): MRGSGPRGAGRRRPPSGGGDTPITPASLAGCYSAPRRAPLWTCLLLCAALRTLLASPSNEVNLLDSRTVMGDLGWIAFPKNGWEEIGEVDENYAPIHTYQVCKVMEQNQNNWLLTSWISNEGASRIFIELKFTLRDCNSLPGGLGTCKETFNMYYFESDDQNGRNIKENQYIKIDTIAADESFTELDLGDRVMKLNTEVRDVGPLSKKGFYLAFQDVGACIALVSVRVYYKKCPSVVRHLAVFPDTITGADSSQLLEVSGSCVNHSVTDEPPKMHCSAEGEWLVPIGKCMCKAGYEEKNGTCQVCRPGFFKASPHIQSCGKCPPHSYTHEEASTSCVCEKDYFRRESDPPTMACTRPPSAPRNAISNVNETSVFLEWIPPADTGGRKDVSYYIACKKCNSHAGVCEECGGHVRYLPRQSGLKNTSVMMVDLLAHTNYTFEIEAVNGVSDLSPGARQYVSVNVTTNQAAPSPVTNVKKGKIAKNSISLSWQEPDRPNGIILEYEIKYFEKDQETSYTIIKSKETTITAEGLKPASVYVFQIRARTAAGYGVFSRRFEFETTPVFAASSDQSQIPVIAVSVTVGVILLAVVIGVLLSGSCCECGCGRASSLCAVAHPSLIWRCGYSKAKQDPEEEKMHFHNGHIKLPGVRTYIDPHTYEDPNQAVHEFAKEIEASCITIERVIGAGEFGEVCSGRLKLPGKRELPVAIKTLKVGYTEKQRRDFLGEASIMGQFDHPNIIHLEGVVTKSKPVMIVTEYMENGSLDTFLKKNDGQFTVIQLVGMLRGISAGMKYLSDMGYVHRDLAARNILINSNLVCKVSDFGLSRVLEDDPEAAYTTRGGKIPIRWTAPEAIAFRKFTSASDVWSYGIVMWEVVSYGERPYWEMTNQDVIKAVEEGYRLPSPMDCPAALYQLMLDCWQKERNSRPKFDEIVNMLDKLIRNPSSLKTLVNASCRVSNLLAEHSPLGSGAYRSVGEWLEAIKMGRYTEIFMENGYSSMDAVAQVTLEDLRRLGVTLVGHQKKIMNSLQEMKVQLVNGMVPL
assayConditions: at 1 µM
Write down the numeric answer in % and omit the unit.

Below: 4 compounds and their reported residual activity.
| smilesString | assayedTarget | residual activity (%) |
| --- | --- | --- |
| O=C1C(Cl)=C(N2C(=O)CCC2=O)C(=O)c2ccccc21 | Ephrin type-A receptor 5 (Homo sapiens) (UniProt P54756) | 119 |
| COc1ccc(Cl)cc1NC(=O)Nc1cc(C)nc2ccccc12 | Ephrin type-A receptor 5 (Homo sapiens) (UniProt P54756) | 97 |
| COc1ccc(CNC(=O)Nc2ncc([N+](=O)[O-])s2)cc1 | Ephrin type-A receptor 5 (Homo sapiens) (UniProt P54756) | 114 |
| CC(C)[C@H](CO)Nc1nc(Nc2cc(N)cc(Cl)c2)c2ncn(C(C)C)c2n1 | Ephrin type-A receptor 5 (Homo sapiens) (UniProt P54756) | 86 |

Ask: Give the measured residual activity for NCCNc1ncc(C(N)=O)c(Nc2cccc(C(F)(F)F)c2)n1
Result: 102

Ask: Give the measured residual activity for CCCCc1c(-c2ccc(O)cc2)[nH]c2nccnc12
Result: 95
